I'd appreciate it if you could supply Threshold of tumor cell numbers for HPV-16 detection values for the items below.
# System: HPV-16
# protocolDetails: qPCR sensitivity against HPV-HNSCC tumor samples diluted among 10 ng normal human DNA
# experimentalContext: Sample # 3
Give bare numbers, in tumor cells.

molecule: E7: previously designed (historical) HPV-16 E7 primers and Taqman probe, SEQ ID NO: 10-12; part of CLIA test (nucleic acid, Taqman probe, labels not given here, part of CLIA test) DNA 1: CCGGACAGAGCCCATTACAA DNA 2: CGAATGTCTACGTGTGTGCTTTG DNA 3: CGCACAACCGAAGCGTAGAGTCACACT
unitTag: tumor cells
reportedResult: 30.0

molecule: HR E5L2-4: primer/probe set for junction between E5 and L2, SEQ ID NO: 55-57 (same as SEQ ID NO: 4-6) (nucleic acid, chemistry not given here) DNA 1: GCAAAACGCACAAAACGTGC DNA 2: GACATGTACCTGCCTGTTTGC DNA 3: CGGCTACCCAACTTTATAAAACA
unitTag: tumor cells
reportedResult: 150.0

Shift focus to the following entry.
Briefly, Threshold of tumor cell numbers for HPV-16 detection measured for BR E6-1: HPV-16 E6 region (172-373 bp) primer/probe set, SEQ ID NO: 58-60 (nucleic acid, chemistry not given here) DNA 1: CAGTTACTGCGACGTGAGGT DNA 2: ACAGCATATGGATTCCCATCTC DNA 3: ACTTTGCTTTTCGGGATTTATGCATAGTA : 150.0
